Target: Fatty acid-binding protein, liver (Rattus norvegicus)
Sequence (P02692 whole entry): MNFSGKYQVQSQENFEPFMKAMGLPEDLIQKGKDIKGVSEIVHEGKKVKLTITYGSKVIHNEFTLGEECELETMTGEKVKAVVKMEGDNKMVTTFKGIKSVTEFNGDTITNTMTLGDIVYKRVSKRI
Assay: Displacement of 1-anilinonaphthalene-8-sulphonic acid from rat recombinant L-FABP high binding affinity site expressed in Escherichia coli BL21 by competitive fluorescence displacement assay
metric_name: pKi
One number for each entry, as −log10 of the molar value.

# input # return recorded pKi for entry CC(=O)Oc1ccccc1C(=O)O
# output 3.46

----------
Target: Fatty acid-binding protein, intestinal (Homo sapiens, UniProt P12104)
Sequence (P12104 whole entry): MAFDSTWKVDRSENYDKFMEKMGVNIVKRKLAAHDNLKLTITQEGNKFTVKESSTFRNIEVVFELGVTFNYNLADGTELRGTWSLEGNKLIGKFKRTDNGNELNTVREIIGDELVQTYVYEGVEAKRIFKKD
Label 1 when Ki is strictly below 9 µM; otherwise label -1.

# input Determine whether this compound shows Ki lower than 9 µM (ties excluded): CC(C)(Oc1ccc(CCNC(=O)c2ccc(Cl)cc2)cc1)C(=O)O [BEZAFIBRATE]
# output -1

# input Regarding CC(C(=O)O)c1ccc(-c2ccccc2)c(F)c1 (stereo not given) , kindly confirm whether its Ki is beneath 9 µM.
# output -1

# input Could you please tell me whether Ki recorded for CC(=O)[C@H]1CC[C@H]2[C@@H]3CCC4=CC(=O)CC[C@]4(C)[C@H]3CC[C@]12C is less than 9 µM?
# output -1

# input Please state whether Ki is below 9 µM for CC(C)(Oc1ccc(C(=O)c2ccc(Cl)cc2)cc1)C(=O)O
# output 1

----------
Record form. Attribute: Ki. Fill in for each entry.
Target: Fatty acid-binding protein, liver (Rattus norvegicus, UniProt P02692)
Sequence (P02692 whole entry): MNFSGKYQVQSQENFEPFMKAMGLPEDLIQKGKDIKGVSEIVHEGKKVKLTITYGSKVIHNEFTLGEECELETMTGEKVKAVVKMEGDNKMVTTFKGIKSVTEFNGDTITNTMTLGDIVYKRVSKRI
Test: Displacement of 1-anilinonaphthalene-8-sulphonic acid from rat recombinant L-FABP low binding affinity site expressed in Escherichia coli BL21 by competitive fluorescence displacement assay
Details: read-out: Ki
One number for each entry, in µM.

compound	Ki (µM)
Cc1ccc(C)c(OCCCC(C)(C)C(=O)O)c1 [GEMFIBROZIL]	179
CC(C)(Oc1ccc(CCNC(=O)c2ccc(Cl)cc2)cc1)C(=O)O [BEZAFIBRATE]	44.4
CC(C(=O)O)c1ccc(N2Cc3ccccc3C2=O)cc1 (centres undefined) [INDOPROFEN]	161

Lab note: next compound to report on.
# input Given Cc1ccc(Cl)c(Nc2ccccc2C(=O)O)c1Cl [MECLOFENAMIC ACID] , respond with its Ki.
# output 0.256
